MEASURED ENDPOINT: melting point (°C)

{"COMPOUND": "C[Si](Cn1cncn1)(c1ccc(F)cc1)c1ccc(F)cc1", "RESULT UNIT": "°C", "melting point": 54}

(1) COc1ccccc1OCCNCC(O)COc1cccc2[nH]c3ccccc3c12 (configuration not stated)
(2) N#Cc1cc(Br)ccc1F
Incoming: # return whichever of 1 and 2 has the smaller melting point Reply with the label of the item you choose.
Outgoing: 2
(2: 79 °C, 1: 114 °C)

* * *

MEASURED ENDPOINT: melting point (°C)

Illustrative cases are given below, each with its answer.
{"MOLECULE": "CCc1ccc(O)c(O)c1", "melting point (°C)": 39}
{"MOLECULE": "COc1ccc(Nc2nc(N)nnc2-c2ccccc2)cc1", "melting point (°C)": 293}
{"MOLECULE": "C=C1CC2C(CCC3(C)C(=O)CCC23)C2(C)C=CC(=O)C=C12 (stereo not drawn)", "melting point (°C)": 190}
{"MOLECULE": "CC(=O)Oc1ccc(C2(c3ccc(OC(C)=O)cc3)C(=O)Nc3ccccc32)cc1", "melting point (°C)": 242}
{"MOLECULE": "c1ccnnc1", "melting point (°C)": -8}
{"MOLECULE": "O=C1C=CC(=O)C(c2ccccc2)=C1", "melting point (°C)": 114}

(I) O=C1OC(=O)C2=C1CC1=C(CC=CC1)C2
(II) O=Cc1ccccc1O
Incoming: Larger number for melting point: I , or II ? Reply with the label of the item you choose.
Outgoing: I

* * *

A collection of molecules and their measured melting point

Illustrative cases are given below, each with its answer.
{"MOLECULE": "CC(=O)/C=C(\\C)c1ccc(-c2ccccc2)cc1", "ASSAY RESULT": "132 to 134 °C"}
{"MOLECULE": "c1ccc2c(c1)CCc1ccccc1C2", "ASSAY RESULT": "72 to 76 °C"}
{"MOLECULE": "CC1(c2ccccc2)CC(C(=NOCC2CO2)c2cc3ccccc3o2)C1 (stereo unspecified)", "ASSAY RESULT": "159 to 160 °C"}
{"MOLECULE": "NNc1cc(C(F)(F)F)ccc1Cl", "ASSAY RESULT": "64 to 68 °C"}
{"MOLECULE": "O=[N+]([O-])c1ccc(-c2cn3c(n2)sc2ccccc23)cc1", "ASSAY RESULT": "285 to 286 °C"}
{"MOLECULE": "N#Cc1ccc(N2CCCCC2)cc1", "ASSAY RESULT": "51 to 53 °C"}
{"MOLECULE": "COc1ccc(-c2noc(C)c2C(=O)Cl)cc1", "ASSAY RESULT": "79 to 81 °C"}
{"MOLECULE": "NN=C1c2ccccc2C(=O)C1C(=O)C(c1ccccc1)c1ccccc1 (stereo unspecified)", "ASSAY RESULT": "241 to 243 °C"}

Incoming: // Input: O=C(CCl)Nc1ccc([N+](=O)[O-])cc1 . Output its melting point only.
Outgoing: 185 to 186 °C

Incoming: // Input: O=S(=O)(O)CCN(CCO)CCO . Output its melting point only.
Outgoing: 152 to 154 °C

Incoming: // Input: NC(=O)Nc1cccc(O)c1 . Output its melting point only.
Outgoing: 182 to 184 °C

* * *

MEASURED ENDPOINT: melting point

{"MOLECULE": "N[C@@H](CSCc1ccccc1)C(=O)O", "melting point": "209 to 214 °C"}
{"MOLECULE": "O=C1c2ccccc2C(=O)c2c1ccc(O)c2O", "melting point": "287 to 289 °C"}

Let us move to another entry and its melting point.
Incoming: // Input: O=C(O)CCSC=Cc1ccccc1 . Output its melting point only.
Outgoing: 117 to 120 °C
